The entries below pair compounds with IC50 values for Subcomponent "r" of Human Complement Component 1 (h C1r) (Homo sapiens, UniProt P00736), as found in several publications.
Express the result in nM but write the number alone.

>>> reported("N=C(N)c1ccc2cc(OC(=O)c3cccs3)ccc2c1")
70

**Query** Item `N=C(N)c1ccc2cc(OC(=O)c3cccc(C(F)(F)F)c3)ccc2c1` with Subcomponent "r" of Human Complement Component 1 (h C1r) (Homo sapiens, UniProt P00736) - IC50?
**Result** 1000

**Query** Item `CCCCOc1ccc(C(=O)Oc2ccc(C(=N)N)cc2[N+](=O)[O-])cc1` with Subcomponent "r" of Human Complement Component 1 (h C1r) (Homo sapiens, UniProt P00736) - IC50?
**Result** 4000
